Source of measurements: patent US6919086B1

molecular target: IgE antibodies of the individual allergic patient serum II/12; test: EAST inhibition, individual serum II/12
pIC50: −log10 of the molar value.
Threshold rule: pIC50 greater than or equal to 7 is True; below that, False.

BINDER: rPhl p 5b deletion mutant DM3 (deletion A154-T177, A220T) (protein) ADAGYAPATPAAAGAAAGKATTEEQKLIEDINVGFKAAVAAAASVPAADKFKTFEAAFTSSSKAAAAKAPGLVPKLDAAYSVAYKAAVGATPEAKFDSFVASLTEALRVIAGALEVHAVKPVTEEPGMAKIPAGELQIIDKIDAAFKVAATAAGGAYDTYKCIPSLEAAVKQAYAATVAAAPQVKYAVFEAALTKTITAMSEVQKVSQPATGAATVAAGAATTAAGAASGAATVAAGGYKV
CAT: False

// next entry
API: above_or_equal(metric=pIC50, cutoff=7) for item natural Phl p 5b, purified by affinity chromatography (protein) ADAGYAPATPAAAGAAAGKATTEEQKLIEDINVGFKAAVAAAASVPAADKFKTFEAAFTSSSKAAAAKAPGLVPKLDAAYSVAYKAAVGATPEAKFDSFVASLTEALRVIAGALEVHAVKPVTEEPGMAKIPAGELQIIDKIDAAFKVAATAAATAPADDKFTVFEAAFNKAIKESTGGAYDTYKCIPSLEAAVKQAYAATVAAAPQVKYAVFEAALTKAITAMSEVQKVSQPATGAATVAAGAATTAAGAASGAATVAAGGYKV True
